- target: T1, alpha-s1 casein from Bos taurus
- T1 chain: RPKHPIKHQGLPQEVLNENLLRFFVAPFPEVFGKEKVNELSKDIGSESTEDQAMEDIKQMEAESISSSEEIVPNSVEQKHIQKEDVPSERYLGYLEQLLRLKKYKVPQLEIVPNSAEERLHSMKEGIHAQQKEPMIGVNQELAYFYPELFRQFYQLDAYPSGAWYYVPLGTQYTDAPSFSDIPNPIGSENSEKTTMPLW
assayMetric: αs1 CN, 16 hours, 30° C. (Volume)
Record the value in Volume, omitting the unit from your answer.

Past entries and their recorded results:
# protein, unitTag, αs1 CN, 16 hours, 30° C.
data = [
    ("bovine chymosin B variant #74 (A51V, K221M) (protein) GEVASVPLTNYLDSQYFGKIYLGTPPQEFTVLFDTGSSDFWVPSIYCKSNVCKNHQRFDPRKSSTFQNLGKPLSIHYGTGSMQGILGYDTVTVSNIVDIQQTVGLSTQEPGDVFTYAEFDGILGMAYPSLASEYSIPVFDNMMNRHLVAQDLFSVYMDRNGQESMLTLGAIDPSYYTGSLHWVPVTVQQYWQFTVDSVTISGVVVACEGGCQAILDTGTSMLVGPSSDILNIQQAIGATQNQYGEFDIDCDNLSYMPTVVFEINGKMYPLTPSAYTSQDQGFCTSGFQSENHSQKWILGDVFIREYYSVFDRANNLVGLAKAI", "Volume", "1.8e+06"),
    ("bovine chymosin B variant #110 (A51V, K221V, N50D, N144H, N160D, S201D, Q242E, M267E, Q280E) (protein) GEVASVPLTNYLDSQYFGKIYLGTPPQEFTVLFDTGSSDFWVPSIYCKSDVCKNHQRFDPRKSSTFQNLGKPLSIHYGTGSMQGILGYDTVTVSNIVDIQQTVGLSTQEPGDVFTYAEFDGILGMAYPSLASEYSIPVFDNMMHRHLVAQDLFSVYMDRDGQESMLTLGAIDPSYYTGSLHWVPVTVQQYWQFTVDSVTIDGVVVACEGGCQAILDTGTSVLVGPSSDILNIQQAIGATQNEYGEFDIDCDNLSYMPTVVFEINGKEYPLTPSAYTSQDEGFCTSGFQSENHSQKWILGDVFIREYYSVFDRANNLVGLAKAI", "Volume", "3e+06"),
]

Moving on to the next protein.
Lookup: Quick one: αs1 CN, 16 hours, 30° C. for bovine chymosin B variant #98 (A51V, K221V, S135T, A126G, S273Y, Q240E) (protein) GEVASVPLTNYLDSQYFGKIYLGTPPQEFTVLFDTGSSDFWVPSIYCKSNVCKNHQRFDPRKSSTFQNLGKPLSIHYGTGSMQGILGYDTVTVSNIVDIQQTVGLSTQEPGDVFTYAEFDGILGMGYPSLASEYTIPVFDNMMNRHLVAQDLFSVYMDRNGQESMLTLGAIDPSYYTGSLHWVPVTVQQYWQFTVDSVTISGVVVACEGGCQAILDTGTSVLVGPSSDILNIQQAIGATENQYGEFDIDCDNLSYMPTVVFEINGKMYPLTPYAYTSQDQGFCTSGFQSENHSQKWILGDVFIREYYSVFDRANNLVGLAKAI ?
Found: 1.5e+06
